# Tested on: ME-1 (Acute Myeloid Leukemia)
# TEST: Bliss excess, mean over the matrix (fraction); higher = more synergy;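 note: after 72 h of two-drug dosing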
Decision: Bliss excess compared against 0.02; not below it gives Y, below it gives N.

CC1(C)CCC(CN2CCN(c3ccc(C(=O)NS(=O)(=O)c4ccc(NCC5CCOCC5)c([N+](=O)[O-])c4)c(Oc4cnc5[nH]ccc5c4)c3)CC2)=C(c2ccc(Cl)cc2)C1 [Venetoclax] + C[C@@H](Nc1cc(F)cc(F)c1)c1cc(C(=O)N(C)C)cc2c(=O)cc(N3CCOCC3)oc12 [AZD8186] (first compound max 1 µM, 7x7, partner max 3 µM) :: Y
Cc1cc2ncnn2cc1Nc1ncc2c(n1)n(C1CCOCC1)c(=O)n2C [AZD7648] + C[C@@H]1COCCN1C2=NC(=NC(=C2)C3(CC3)[S@](=N)(=O)C)C4=C5C=CNC5=NC=C4 [AZD6738] (first compound max 10 µM, 7x7, partner max 10 µM) :: N
CC1(C)CCC(CN2CCN(c3ccc(C(=O)NS(=O)(=O)c4ccc(NCC5CCOCC5)c([N+](=O)[O-])c4)c(Oc4cnc5[nH]ccc5c4)c3)CC2)=C(c2ccc(Cl)cc2)C1 [Venetoclax] + C1CN(CCC1(C(=O)N[C@@H](CCO)C2=CC=C(C=C2)Cl)N)C3=NC=NC4=C3C=CN4 [Capivasertib] (first compound max 1 µM, 7x7, partner max 3 µM) :: N
CCc1c2c(nc3ccc(O)cc13)-c1cc3c(c(=O)n1C2)COC(=O)[C@]3(O)CC [SN-38] + O=C(c1cc(Cc2n[nH]c(=O)c3ccccc23)ccc1F)N1CCN(C(=O)C2CC2)CC1 [Olaparib] (first compound max 0.3 µM, 7x7, partner max 10 µM) :: N

Exercise: Has Cc1c2c(nn1C)CSCc1cc(n(C)n1)CSc1cc(c3ccccc3c1)OCCCc1c(C(=O)O)n(C)c3c-2c(Cl)ccc13 [AZD5991] + CN(C)CCCOc1ccc(-c2ccc3ncc4c(c3c2)n(C2CCOCC2)c(=O)n4C)cn1 [AZD0156] (first compound max 1 µM, 7x7, partner max 1 µM) a recorded Bliss excess greater than or equal to 0.02?
Solution: Y

---

# Test system: HCC1806 (Breast Carcinoma)
# TEST: Bliss excess, mean over the matrix (fraction); higher = more synergy
Each record here notes measured Bliss excess.
Answer as a number with no unit attached.

# annotated cases, reported Bliss excess shown
COc1nnc2ccc(N3CCC(c4ccc(OCCN5CCN(C)C(=O)[C@H]5C)cc4)CC3)nn12 [AZD5153] + CCN(CCO)CCCOc1ccc2c(Nc3cc(CC(=O)Nc4cccc(F)c4)[nH]n3)ncnc2c1 [AZD2811] (first compound max 1 µM, 7x7, partner max 1 µM) :: -0.042
Cc1cc2ncnn2cc1Nc1ncc2c(n1)n(C1CCOCC1)c(=O)n2C [AZD7648] + C=CCn1c(=O)c2cnc(Nc3ccc(N4CCN(C)CC4)cc3)nc2n1-c1cccc(C(C)(C)O)n1 [AZD1775] (first compound max 10 µM, partner max 1 µM) :: 0.0373
CN(CCO)CC[C@H](CSc1ccccc1)Nc1ccc(S(=O)(=O)NC(=O)c2ccc(N3CCC([C@@H](O)c4ccccc4-c4ccc(Cl)cc4)CC3)cc2)cc1S(=O)(=O)C(F)(F)F [AZD4320] + Cc1cc2ncnn2cc1Nc1ncc2c(n1)n(C1CCOCC1)c(=O)n2C [AZD7648] (first compound max 1 µM, 7x7, partner max 10 µM) :: -0.058

// next item, Bliss excess requested
Exercise: Item Cc1c2c(nn1C)CSCc1cc(n(C)n1)CSc1cc(c3ccccc3c1)OCCCc1c(C(=O)O)n(C)c3c-2c(Cl)ccc13 [AZD5991] + C=CCn1c(=O)c2cnc(Nc3ccc(N4CCN(C)CC4)cc3)nc2n1-c1cccc(C(C)(C)O)n1 [AZD1775] (first compound max 1 µM, partner max 1 µM) has what recorded Bliss excess?
Solution: 0.0493

Numbers sourced from the supplement of paper PMC11061612.
